Assay target: Caspase-1 (Homo sapiens)
Construct: mixing the compounds with the respective active caspases; purchased BioVision K151-100
Sequence (P29466 120-297 limits assumed): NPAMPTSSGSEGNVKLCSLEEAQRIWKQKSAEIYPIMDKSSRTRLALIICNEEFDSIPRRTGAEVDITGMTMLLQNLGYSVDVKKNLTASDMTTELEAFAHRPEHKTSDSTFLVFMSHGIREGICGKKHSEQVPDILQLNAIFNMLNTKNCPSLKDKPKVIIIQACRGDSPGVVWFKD
Sequence (P29466 317-404 limits assumed): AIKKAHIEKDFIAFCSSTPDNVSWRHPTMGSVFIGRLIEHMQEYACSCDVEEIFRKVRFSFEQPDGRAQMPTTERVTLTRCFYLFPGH
Experimental details: Caspase-1 inhibitor screening assay (BioVision kit, YVAD-AFC)
Type: biochemical
Measurement context: read-out: IC50 Casp1
Measure: IC50

Item smiles | IC50
CS(=O)(=O)/C=C/[C@H](CC(=O)O)NC(=O)[C@H](CCC(=O)O)NC(=O)c1ccc2ccccc2n1 | > 100 µM
CC(C)[C@H](NC(=O)[C@@H](NC(=O)[C@H](CC(=O)O)NC(=O)OCc1ccccc1)c1ccccc1)C(=O)N[C@H](/C=C/S(C)(=O)=O)CCC(=O)O | > 100 µM
CC(C)[C@H](NC(=O)c1ccc2ccccc2n1)C(=O)N[C@H](/C=C/S(C)(=O)=O)CC(=O)O | > 100 µM

Count: 2. Required value per item: IC50.
1. CC(C)(C)[C@@H](NC(=O)[C@H](CC(=O)O)NC(=O)OCc1ccccc1)C(=O)N1CC[C@@H]1C(=O)N[C@H](/C=C/S(C)(=O)=O)CC(=O)O
2. CCOC(=O)/C=C/[C@H](CC(=O)O)NC(=O)[C@@H](NC(=O)[C@H](CCC(=O)O)NC(=O)[C@@H](NC(=O)OCc1ccccc1)C(C)C)c1ccccc1

Result:
["13.3 µM", "1 µM"]

Count: 2. Required value per item: IC50.
1. CC(C)[C@H](NC(=O)OCc1ccccc1)C(=O)N[C@H](/C=C/S(C)(=O)=O)CC(=O)O
2. CS(=O)(=O)/C=C/[C@H](CC(=O)O)NC(=O)[C@H]1CCCN1C(=O)[C@@H](NC(=O)[C@H](CC(=O)O)NC(=O)OCc1ccccc1)c1ccccc1

Result:
> 100 µM
8 µM
